molecular target: human AspH (His6-AspH315–758) (Homo sapiens, UniProt Q12797); construct: N-Terminally His6-tagged human AspH315–758 (His6-AspH315–758) was produced in Escherichia coli BL21 (DE3) cells; made in house; host or cells: Escherichia coli BL21 (DE3), pET-28a(+) vector; test: SPE-MS AspH inhibition assay (hFX-CP101-119 substrate hydroxylation); assay type: biochemical; details: AspH-inhibitor screening, Plate 1-duplicate, substrate conversion
Sequence (Q12797 315-758): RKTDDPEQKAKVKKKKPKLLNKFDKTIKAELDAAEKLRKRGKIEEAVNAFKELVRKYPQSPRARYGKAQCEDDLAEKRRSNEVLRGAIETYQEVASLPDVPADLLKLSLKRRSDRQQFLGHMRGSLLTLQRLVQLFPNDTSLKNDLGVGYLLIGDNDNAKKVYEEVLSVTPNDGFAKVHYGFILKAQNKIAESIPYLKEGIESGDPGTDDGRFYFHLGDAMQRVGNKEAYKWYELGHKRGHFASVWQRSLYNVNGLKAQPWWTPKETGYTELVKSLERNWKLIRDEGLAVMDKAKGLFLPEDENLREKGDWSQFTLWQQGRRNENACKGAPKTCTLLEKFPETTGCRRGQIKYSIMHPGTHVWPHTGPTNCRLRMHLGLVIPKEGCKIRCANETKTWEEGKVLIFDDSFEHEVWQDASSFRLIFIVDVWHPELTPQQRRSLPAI
Where a name gives a salt, the structure may show the parent alone.
Measured endpoint: Plate 1-duplicate (% conversion) (%)
Answer with a number only, understood to be in %.

The cases that follow already have their Plate 1-duplicate (% conversion) on record.
O=C(c1cc(Cc2n[nH]c(=O)c3ccccc23)ccc1F)N1CCN(C(=O)C2CC2)CC1; 45.03
CC(=O)c1c(C)c2cnc(Nc3ccc(N4CCNCC4)cn3)nc2n(C2CCCC2)c1=O [Palbociclib]; 49.96
O=C(c1ccc(OCCN2CCCCC2)cc1)c1c(-c2ccc(O)cc2)sc2cc(O)ccc12; 44.88
C[C@@H](Oc1cc(-c2cnn(C3CCNCC3)c2)cnc1N)c1c(Cl)ccc(F)c1Cl [Crizotinib]; 52.18
C=C1C[C@@H]2[C@H](CC[C@]3(C)C(=O)CC[C@@H]23)[C@@]2(C)C=CC(=O)C=C12; 50.97
O=C(O)CCCc1ccc(N(CCCl)CCCl)cc1; 51.29
O=C1CCC(N2C(=O)c3ccccc3C2=O)C(=O)N1 (stereo not shown) [Thalidomide]; 51.33
CCCCC(=O)OCC(=O)[C@]1(O)Cc2c(O)c3c(c(O)c2[C@@H](O[C@H]2C[C@H](NC(=O)C(F)(F)F)[C@H](O)[C@H](C)O2)C1)C(=O)c1c(OC)cccc1C3=O; 60.31
CCc1cncnc1N1CCN(Cc2nc3ccc(C(F)(F)F)cc3[nH]2)CC1; 55.70
Nc1ccn([C@@H]2O[C@H](CO)[C@@H](O)C2(F)F)c(=O)n1 [Gemcitabine hydrochloride]; 46.91

Case Cn1cncc1[C@@](N)(c1ccc(Cl)cc1)c1ccc2c(c1)c(-c1cccc(Cl)c1)cc(=O)n2C [Tipifarnib (Zarnestra)] , human AspH (His6-AspH315–758) (Homo sapiens, UniProt Q12797), Plate 1-duplicate (% conversion) recorded as 82.50

Case `COc1cccc2cc(-c3nc([C@H]4CC[C@H](C(=O)O)CC4)n4ncnc(N)c34)[nH]c12` , human AspH (His6-AspH315–758) (Homo sapiens, UniProt Q12797), Plate 1-duplicate (% conversion) recorded as 53.34

Case `CN(C)/N=N/c1[nH]cnc1C(N)=O` , human AspH (His6-AspH315–758) (Homo sapiens, UniProt Q12797), Plate 1-duplicate (% conversion) recorded as 48.11

Case `C[C@]12C=CC(=O)C=C1CC[C@@H]1[C@@H]2C(=O)C[C@@]2(C)[C@H]1CC[C@]2(O)C(=O)CO` , human AspH (His6-AspH315–758) (Homo sapiens, UniProt Q12797), Plate 1-duplicate (% conversion) recorded as 51.04

Case `CO[C@@]12[C@H](COC(N)=O)C3=C(C(=O)C(C)=C(N)C3=O)N1C[C@@H]1N[C@@H]12` , human AspH (His6-AspH315–758) (Homo sapiens, UniProt Q12797), Plate 1-duplicate (% conversion) recorded as 50.76

Case `O=C(O)CC[C@H]1CC[C@@](c2cc(F)ccc2F)(S(=O)(=O)c2ccc(Cl)cc2)CC1` , human AspH (His6-AspH315–758) (Homo sapiens, UniProt Q12797), Plate 1-duplicate (% conversion) recorded as 47.14
